Test system: SR
Assay: NCI tumour cell line growth inhibition, 48 h
Active and inactive are the calls of the source. Cut-off read from the data, not from the text of the source: active = GI50 up to about 1.1 µM and inactive = higher. Where a SMILES comes first, the peptide text is derived from it. The star is where a group is joined. Boc = CC(C)(C)OC(=O)*; Bn = c1ccc(C*)cc1
Property Measured: GI50

Sample O=C(NCCCCCCNC(=O)n1cc(F)c(=O)[nH]c1=O)NCCCOCCOCCOCCOCCOCCOCCOCCOCCOCCOCCOCCOCCOCCOCCOCCOCCOCCOCCOCCOCCOCCCNC(=O)C(O)C(O)C(OC1OC(CO)C(O)C(O)C1O)C(O)CO (centres undefined) ; GI50 observed: 16 µM (inactive)

Sample COC(=O)C(CC(C)C)NC(=O)CNC(=O)C(Cc1ccc(OCc2ccccc2)cc1)NC(=O)C(COCc1ccccc1)NC(=O)OC(C)(C)C (centres undefined) (Boc-S(Bn)Y(Bn)GL-OMe; configuration not given here) ; GI50 observed: > 100 µM (inactive)
